- assay system: T1, mouse PD-1 receptor (mouse, UniProt Q02242 25-167, limits assumed)
- T1 sequence (looked up): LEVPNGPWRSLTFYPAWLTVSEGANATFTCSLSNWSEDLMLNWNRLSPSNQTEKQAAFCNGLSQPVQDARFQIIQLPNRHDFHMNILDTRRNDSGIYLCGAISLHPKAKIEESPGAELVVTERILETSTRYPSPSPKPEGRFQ
- measurement protocol: BIACORE T-200 SPR, PD-1 immobilised on CM5, steady state
Quick reference: Ka of the listed items.
observable: Ka (M⁻¹)

{"columns": ["binder", "observable", "obs value"],
 "data": [
  ["QTRTVPMPKIHHPPWQNVVP (Found by phage display) [peptide QP20]", "Ka", 18000],
  ["SSYHHFKMPELHFGKNTFHQ (Found by phage display) [peptide SQ20]", "Ka", 21400],
  ["WNLPASFHNHHIRPHEHEWIQ (also called WQ-21) [peptide WQ20]", "Ka", 1310],
  ["HHHQVYQVRSHWTGMHSGHD (Found by phage display) [peptide HD20]", "Ka", 4250]
]}
